System tested: HLA-B*08 (human)
Experiment notes: UV peptide exchange ELISA
Observable: peptide exchange yield

[[record]]
binder = "DIYQRALNL"
result = "> 75%"

[[record]]
binder = "ELKKLYCQI"
result = "> 75%"

[[record]]
binder = "EIRIRVVQM"
result = "> 75%"

[[record]]
binder = "YMHKLLVL"
result = "> 75%"

[[record]]
binder = "HLLQKQTSI"
result = "50 to 75%"


Sample LPPKKFVL ; peptide exchange yield observed: > 75%

Sample ILKVKVGL ; peptide exchange yield observed: > 75%

Sample EAMLRNKEL ; peptide exchange yield observed: > 75%

All figures here come from patent US20220153796A1.
